assay-protocol: Intrinsic clearance in human hepatocytes assessed per million cells at 1 uM preincubated for 1 hr followed by NADPH addition and measured by LC/MS/MS analysis
Assay type: ADME, cell-based, Hepatocyte
condition-details: read-out: CLH
property-name: hepatocyte CLint at 1 µM (µL/min/1e6 cells)

compound=Cn1nc(-c2cccc(-n3ncc4cc(C(C)(C)C)cc(F)c4c3=O)c2CO)cc(Nc2ccc(C(=O)N3CCOCC3)cn2)c1=O property_name="hepatocyte CLint at 1 µM" measure_unit="µL/min/1e6 cells" data_value=0.3
compound="Cn1c2c(cc(Nc3ccc(C(=O)N4CCOCC4)cn3)c1=O)-c1cccc(-n3ncc4cc(C(C)(C)C)cc(F)c4c3=O)c1CC(O)C2 (racemic)" property_name="hepatocyte CLint at 1 µM" measure_unit="µL/min/1e6 cells" data_value=0.3

---

assay-protocol: Intrinsic clearance in rat hepatocytes assessed per million cells at 1 uM preincubated for 1 hr followed by NADPH addition and measured by LC/MS/MS analysis
Assay type: ADME, cell-based, Hepatocyte
condition-details: read-out: CLH
property-name: hepatocyte CLint at 1 µM (µL/min/1e6 cells)

a: Cn1c2c(cc(Nc3ccc(C(=O)N4CCOCC4)cn3)c1=O)-c1cccc(-n3ncc4cc(C(C)(C)C)cc(F)c4c3=O)c1CC(O)C2 (racemic)
b: Cn1nc(-c2cccc(-n3ncc4cc(C(C)(C)C)cc(F)c4c3=O)c2CO)cc(Nc2ccc(C(=O)N3CCOCC3)cn2)c1=O
Select one: a or b . Criterion: greater recorded hepatocyte CLint at 1 µM. Kindly give the label for the entry you pick.
a
(a: 3.3 µL/min/1e6 cells, b: 2 µL/min/1e6 cells)

---

target-under-test: Tyrosine-protein kinase BTK (Homo sapiens, UniProt Q06187)
Sequence (Q06187 whole entry): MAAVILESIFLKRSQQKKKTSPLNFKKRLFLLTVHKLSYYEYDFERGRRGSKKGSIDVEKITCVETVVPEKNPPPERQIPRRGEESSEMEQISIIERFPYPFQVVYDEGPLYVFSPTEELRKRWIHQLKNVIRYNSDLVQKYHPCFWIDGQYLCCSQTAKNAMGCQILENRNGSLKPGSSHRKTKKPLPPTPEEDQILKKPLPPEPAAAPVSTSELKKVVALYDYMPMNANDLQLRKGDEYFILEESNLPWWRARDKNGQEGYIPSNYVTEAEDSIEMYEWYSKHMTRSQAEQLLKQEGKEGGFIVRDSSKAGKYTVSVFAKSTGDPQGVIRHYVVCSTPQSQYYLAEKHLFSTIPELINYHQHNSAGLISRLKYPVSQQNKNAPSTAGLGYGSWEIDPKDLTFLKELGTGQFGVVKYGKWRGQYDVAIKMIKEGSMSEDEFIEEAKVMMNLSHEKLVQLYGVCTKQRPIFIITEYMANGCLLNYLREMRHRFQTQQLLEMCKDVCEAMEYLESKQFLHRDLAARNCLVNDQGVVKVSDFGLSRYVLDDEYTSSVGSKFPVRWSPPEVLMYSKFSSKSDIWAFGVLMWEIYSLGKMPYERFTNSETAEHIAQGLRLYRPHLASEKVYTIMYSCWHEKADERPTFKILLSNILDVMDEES
assay-protocol: Inhibition of Kinase Tracer 178 binding to biotinylated-BTK (unknown origin) measured after 18 to 24 hrs by Europium-labeled Streptavidin conjugate based TR-FRET assay
property-name: IC50

Provide value of IC50 for this record tested with Tyrosine-protein kinase BTK (Homo sapiens, UniProt Q06187): Cn1nc(-c2cccc(-n3ncc4cc(C(C)(C)C)cc(F)c4c3=O)c2CO)cc(Nc2ccc(C(=O)N3CCOCC3)cn2)c1=O
< 1 nM

---

assay-protocol: Intrinsic clearance in human liver microsomes at 1 uM preincubated for 1 hr followed by NADPH addition and measured by LC/MS/MS analysis
Assay type: ADME, Microsome
condition-details: read-out: CLH
property-name: microsomal CLint at 1 µM (µL/min/mg)

I: Cn1c2c(cc(Nc3ccc(C(=O)N4CCOCC4)cn3)c1=O)-c1cccc(-n3ncc4cc(C(C)(C)C)cc(F)c4c3=O)c1CC(O)C2 (racemic)
II: Cn1nc(-c2cccc(-n3ncc4cc(C(C)(C)C)cc(F)c4c3=O)c2CO)cc(Nc2ccc(C(=O)N3CCOCC3)cn2)c1=O
Sort I and II by microsomal CLint at 1 µM descending and give the first. Give the chosen item's label as your response.
I
